# system.tested: cathepsin G (Homo sapiens)
# Sequence (P08311 21-244): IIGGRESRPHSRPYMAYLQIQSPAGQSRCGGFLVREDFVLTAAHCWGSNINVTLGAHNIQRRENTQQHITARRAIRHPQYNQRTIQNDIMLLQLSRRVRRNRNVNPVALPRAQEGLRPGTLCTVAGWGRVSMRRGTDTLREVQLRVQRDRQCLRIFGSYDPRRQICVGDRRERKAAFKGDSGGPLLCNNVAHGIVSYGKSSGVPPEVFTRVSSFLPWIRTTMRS
# experiment: Proteolytic stability in the presence of cathepsin G
# Assay type: in vitro ADME
# condition.details: cathepsin G (25 μg/ml) in RPMI 1640; 100 μM peptide, 25 μg/mL cathepsin G, cell culture medium, room temperature
assay.endpoint: half-life at 100 μM

Inquiry: Any idea what half-life at 100 μM came out for CC(=O)N[C@H](C(=O)N[C@@H](CO)C(=O)N[C@@H](Cc1ccccc1)C(=O)N[C@@H](C)C(=O)N[C@@H](CCC(=O)O)C(=O)N[C@@H](Cc1ccc(O)cc1)C(=O)N[C@@H](Cc1c[nH]c2ccccc12)C(=O)N[C@H]1CCCCNC(=S)SC[C@@H](C(N)=O)NC(=O)[C@H](CO)NC(=O)[C@H](CC(C)C)NC(=O)[C@H](CC(C)C)NC1=O)[C@@H](C)O on cathepsin G (Homo sapiens)?
Reply text: ~8 h
